Test system: HIV-1IIIB
measurementNotes: microbe, parasite or virus in culture
Assay type: cell-based, Human Immunodeficiency Virus type-1 (HIV-1)
protocolConditions: Human immunodeficiency virus 1, MT4, read-out: EC50 HIV-1IIIB
pEC50: −log10 of the molar value.
pEC50 values, listed per item

Study these solved cases before continuing.
molecule	system	pEC50
Nc1ccc(-n2nc3cc(Cl)c(Cl)cc3n2)cc1 [1b]	HIV-1IIIB	< 4.28
CCCC(=O)N(C(=O)CCC)c1ccc(-n2nnc3cc(Cl)c(Cl)cc32)cc1 [5d]	HIV-1IIIB	< 4.46
CCC(=O)Nc1ccc(-n2nc3cc(Cl)c(Cl)cc3n2)cc1 [6b]	HIV-1IIIB	< 4.00
O=C(Nc1ccc(-n2nnc3cc(Cl)c(Cl)cc32)cc1)c1ccc(C(F)(F)F)cc1 [7g]	HIV-1IIIB	< 4.00
CC(=O)Nc1ccc(-n2nnc3cc(Cl)c(Cl)cc32)cc1 [5a]	HIV-1IIIB	< 4.46

Let's switch to this molecule now.
Which pEC50 value is on record for Nc1ccc(-n2nnc3cc(Cl)c(Cl)cc32)cc1 [1a] ? < 4.00

====

CC50 values, listed per item
measurementNotes: Cytotoxicity, MTT method, BHK cells
protocolConditions: Syrian hamster (Mesocricetus auratus)

compound	CC50
Cc1ccc(C(=O)Nc2ccc(-n3nc4cc(Cl)c(Cl)cc4n3)cc2)cc1 [8b]	> 100 µM
Cc1ccc(NC(=O)Nc2ccc(-n3nc4cc(Cl)c(Cl)cc4n3)cc2)cc1 [10f]	> 100 µM
N#Cc1ccc(C(=O)Nc2ccc(-n3nnc4cc(Cl)c(Cl)cc43)cc2)cc1 [7h]	> 100 µM
COc1cc(C(=O)Nc2ccc(-n3nnc4cc(Cl)c(Cl)cc43)cc2)cc(OC)c1OC [7d]	> 100 µM
COc1ccc(C(=O)Nc2ccc(-n3nnc4cc(Cl)c(Cl)cc43)cc2)cc1 [7c]	> 100 µM

Which CC50 value is on record for O=C(Nc1ccc(-n2nc3cc(Cl)c(Cl)cc3n2)cc1)c1ccc(Cl)cc1 [8f] ? > 100 µM

Which CC50 value is on record for C[C@@]1(O)[C@H](O)[C@@H](CO)O[C@H]1n1cnc2c(=O)[nH]c(N)nc21 [2MG, 2’-C-methyl-guanosine, reference compound] ? > 100 µM

Which CC50 value is on record for CCCCNC(=O)Nc1ccc(-n2nc3cc(Cl)c(Cl)cc3n2)cc1 [10c] ? > 100 µM

Which CC50 value is on record for CCC(=O)Nc1ccc(-n2nc3cc(Cl)c(Cl)cc3n2)cc1 [6b] ? > 100 µM

Which CC50 value is on record for O=C(Nc1ccccc1)Nc1ccc(-n2nc3cc(Cl)c(Cl)cc3n2)cc1 [10e] ? > 100 µM

====

System: HIV-1IIIB
measurementNotes: microbe, parasite or virus in culture
Type: cell-based, Human Immunodeficiency Virus type-1 (HIV-1)
protocolConditions: Human immunodeficiency virus 1, MT4, read-out: EC50 HIV-1IIIB
metricName: EC50

Study these solved cases before continuing.
molecule	system	EC50
Cc1ccc(C(=O)Nc2ccc(-n3nnc4cc(Cl)c(Cl)cc43)cc2)cc1 [7b]	HIV-1IIIB	> 100 µM
CCCC(=O)Nc1ccc(-n2nnc3cc(Cl)c(Cl)cc32)cc1 [5c]	HIV-1IIIB	> 60 µM
O=C(Nc1ccc(-n2nc3cc(Cl)c(Cl)cc3n2)cc1)c1ccccc1 [8a]	HIV-1IIIB	> 100 µM
COc1cc(C(=O)Nc2ccc(-n3nnc4cc(Cl)c(Cl)cc43)cc2)cc(OC)c1OC [7d]	HIV-1IIIB	> 77 µM
COc1ccc(C(=O)Nc2ccc(-n3nnc4cc(Cl)c(Cl)cc43)cc2)cc1 [7c]	HIV-1IIIB	> 33 µM

Let's switch to this molecule now.
Which EC50 value is on record for O=C(Nc1ccc(-n2nc3cc(Cl)c(Cl)cc3n2)cc1)c1ccc(C(F)(F)F)cc1 [8g] ? > 100 µM
